Exercise: for every item that follows, state its recorded pIC50.
Target: recombinant human transglutaminase 2 (Homo sapiens)
Sequence (P21980 whole entry): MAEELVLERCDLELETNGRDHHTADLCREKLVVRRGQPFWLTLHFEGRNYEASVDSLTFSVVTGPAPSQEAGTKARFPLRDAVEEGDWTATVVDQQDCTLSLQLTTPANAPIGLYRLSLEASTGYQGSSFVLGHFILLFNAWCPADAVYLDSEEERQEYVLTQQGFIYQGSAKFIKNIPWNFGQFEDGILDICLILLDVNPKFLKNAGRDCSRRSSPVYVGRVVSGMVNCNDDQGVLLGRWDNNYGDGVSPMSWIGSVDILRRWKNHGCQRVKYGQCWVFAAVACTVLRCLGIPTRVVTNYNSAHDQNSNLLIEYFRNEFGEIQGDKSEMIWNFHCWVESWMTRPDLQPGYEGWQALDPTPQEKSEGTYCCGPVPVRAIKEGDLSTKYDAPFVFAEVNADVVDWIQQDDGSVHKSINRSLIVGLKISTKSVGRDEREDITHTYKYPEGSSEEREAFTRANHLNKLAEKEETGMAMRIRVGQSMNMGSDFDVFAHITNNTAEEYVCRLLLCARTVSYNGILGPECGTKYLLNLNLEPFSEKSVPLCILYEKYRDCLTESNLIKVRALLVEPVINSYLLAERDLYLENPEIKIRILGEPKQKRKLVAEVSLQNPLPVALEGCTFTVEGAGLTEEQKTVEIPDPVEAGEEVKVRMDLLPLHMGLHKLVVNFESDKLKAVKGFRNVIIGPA
Test: Transglutaminase assay: incorporation of dansylcadaverine into dimethylcasein (DCC-assay)
Format: biochemical
Conditions: recombinant human TG2 10 nM, dansylcadaverine/dimethylcasein; read-out: IC50 TG2
pIC50: −log10 of the molar value.

// field: pIC50; key: CCNC(=O)C(=O)CC[C@H](NC(=O)c1ccnnc1)C(=O)Nc1cccn(CC(=O)NC2C3CCC2CC3)c1=O (stereo partly drawn) [Compound I-72] ; value = 6.22 to 6.82

// field: pIC50; key: CCNC(=O)C(=O)CC[C@H](NC(=O)c1ccc2cnccc2n1)C(=O)Nc1cccn(CC(=O)NC2C3CC4CC2CC(CC)(C4)C3)c1=O (stereo partly drawn) [Compound I-106] ; value = 5.46 to 6.22

// field: pIC50; key: CCNC(=O)C(=O)CC[C@H](NC(=O)C1Cc2ccccc2C1)C(=O)Nc1cccn(CC(=O)NC2C3CC4CC(C3)CC2C4)c1=O (stereo partly drawn) [Compound I-39] ; value = > 6.82

###

Biological target: recombinant human transglutaminase 2 (Homo sapiens)
Assay: Transglutaminase assay: incorporation of dansylcadaverine into dimethylcasein (DCC-assay)
Format: biochemical
Conditions: recombinant human TG2 10 nM, dansylcadaverine/dimethylcasein; read-out: IC50 TG2
Exercise: for every item that follows, state its recorded IC50.

// field: IC50; key: CCNC(=O)C(=O)CC[C@H](NC(=O)c1cn(C2CCC2)cn1)C(=O)Nc1cccn(CC(=O)NC23CC4CC(CC(CC)(C4)C2)C3)c1=O ; value = 600 to 3500 nM

// field: IC50; key: CCNC(=O)C(=O)CC[C@H](NC(=O)c1cc2cccc(F)c2s1)C(=O)Nc1cccn(CC(=O)NC2C3CC4CC(C3)CC2C4)c1=O (stereo partly drawn) ; value = < 150 nM

// field: IC50; key: CCNC(=O)C(=O)CC[C@H](NC(=O)c1oc2ccccc2c1CC)C(=O)Nc1cccn(CC(=O)NC23CC(C2)C3)c1=O ; value = 150 to 600 nM

// field: IC50; key: CCNC(=O)C(=O)CC[C@H](NC(=O)c1cnc2ccc(OC(F)(F)F)cc2c1O)C(=O)Nc1cccn(CC(=O)N[C@@H]2C[C@@H]3CC[C@H]2C3)c1=O ; value = 600 to 3500 nM

// field: IC50; key: CCNC(=O)C(=O)CC[C@H](NC(=O)c1[nH]c2ccccc2c1C)C(=O)Nc1cccn(CC(=O)NC2C3CC4CC(C3)CC2C4)c1=O (stereo partly drawn) ; value = < 150 nM

// field: IC50; key: CCNC(=O)C(=O)CC[C@H](NC(=O)c1oc2ccccc2c1C)C(=O)Nc1cccn(CC(=O)NC2C3CC4CC(C3)CC2C4)c1=O (stereo partly drawn) ; value = < 150 nM

// field: IC50; key: CCNC(=O)C(=O)CC[C@H](NC(=O)c1oc2ccccc2c1C)C(=O)Nc1cccn(CC(=O)N[C@@H]2C[C@H]3CC[C@@H]2C3)c1=O ; value = < 150 nM

// field: IC50; key: CCNC(=O)C(=O)CC[C@H](NC(=O)c1ccnn1C)C(=O)Nc1cccn(CC23CC4CC(CC(C4)C2)C3)c1=O ; value = 150 to 600 nM

// field: IC50; key: CCNC(=O)C(=O)CC[C@H](NC(=O)c1sc(C(F)(F)F)nc1Br)C(=O)Nc1cccn(CC(=O)NC2C3CC4CC(C3)CC2C4)c1=O (stereo partly drawn) ; value = < 150 nM

// field: IC50; key: CCNC(=O)C(=O)CC[C@H](NC(=O)C1CN2CCC1CC2)C(=O)Nc1cccn(CC(=O)NC2(C#N)C3CC4CC(C3)CC2C4)c1=O (stereo partly drawn) ; value = 150 to 600 nM

// field: IC50; key: CCNC(=O)C(=O)CC[C@H](NC(=O)c1cc(Br)sc1Br)C(=O)Nc1cccn(CC(=O)NC2C3CC4CC(C3)CC2C4)c1=O (stereo partly drawn) ; value = < 150 nM

// field: IC50; key: CCNC(=O)C(=O)CC[C@H](NC(=O)c1nccn1C)C(=O)Nc1cccn(CC(=O)NC23CC4CC(C)(CC(C)(C4)C2)C3)c1=O ; value = 600 to 3500 nM
